- System: HCT-116
- protocol-details: Growth inhibition of human HCT116 cells assessed as cell growth at 10 uM after 48 hrs by sulforhodamine B assay
- Type: functional
- condition-label: HCT-116, 48 h, read-out: Activity
param class (str): category from growth at 10 µM; see ranges low interval (below -90%), middle interval (-90% to below 50%), high interval (50% or more)

Task item: For this compound, which bin applies? `CC(C)=CCC/C(C)=C/CC/C(C)=C/CC[C@]1(C)CCc2c3c(cc(C)c2O1)OCN(C1CCN(Cc2ccccc2)CC1)C3`
Reply: middle interval

----------
- Test system: CCRF-CEM
- protocol-details: Growth inhibition of human CCRF-CEM cells assessed as cell growth at 10 uM after 48 hrs by sulforhodamine B assay
- Assay type: functional
- condition-label: read-out: Activity
value-type: growth at 10 µM (%)
The figure you give is taken to be in %; do not add the unit.

record_smiles=CC(C)=CCC/C(C)=C/CC/C(C)=C/CC[C@]1(C)CCc2c3c(c(C)c(C)c2O1)OCN(CCCCCCO)C3 value_type="growth at 10 µM" test_value=5.83

Task item: Could you tell me which growth at 10 µM is on file for `CC(C)=CCC/C(C)=C/CC/C(C)=C/CC[C@]1(C)CCc2c3c(c(C)c(C)c2O1)OCN(CCCCO)C3` ?
Reply: 39.9

Task item: Please do the same for `CC(C)=CCC/C(C)=C/CC/C(C)=C/CC[C@]1(C)CCc2c3c(c(C)c(C)c2O1)OCN(CCc1ccc(O)cc1)C3` as well.
Reply: 49.6

Task item: Note, next up: `CC(C)=CCC/C(C)=C/CC/C(C)=C/CC[C@]1(C)CCc2c3c(cc(C)c2O1)OCN(CCCCCCCCCCO)C3`
Reply: 49.5

Task item: Now give it for `CC(C)=CCC/C(C)=C/CC/C(C)=C/CC[C@]1(C)CCc2c3c(cc(C)c2O1)OCN(CCCCCCO)C3` too.
Reply: -20.6

Task item: Next compound: `CC(C)=CCC/C(C)=C/CC/C(C)=C/CC[C@]1(C)CCc2c3c(cc(C)c2O1)OCN(C1CCN(Cc2ccccc2)CC1)C3`
Reply: 2.34

Task item: # repeat for `COc1ccc(CCN2COc3c(C)c(C)c4c(c3C2)CC[C@@](C)(CC/C=C(\C)CC/C=C(\C)CCC=C(C)C)O4)cc1OC`
Reply: 78

Task item: Continue with `CC(C)=CCC/C(C)=C/CC/C(C)=C/CC[C@]1(C)CCc2c3c(c(C)c(C)c2O1)OCN(CCCCCO)C3`
Reply: 54.9

----------
- Test system: T47D
- protocol-details: Growth inhibition of human T47D cells after 48 hrs by sulforhodamine B assay
- Type: functional
value-type: GI50 (nM)
Field: numeric (nM). Do not append units.

// solved cases for GI50 follow
record_smiles=CC(C)=CCC/C(C)=C/CC/C(C)=C/CC[C@]1(C)CCc2c3c(cc(C)c2O1)OCN(CCCCCCO)C3 test_value=1760
record_smiles=CC(C)=CCC/C(C)=C/CC/C(C)=C/CC[C@]1(C)CCc2c3c(cc(C)c2O1)OCN(CCCO)C3 test_value=2010
record_smiles=CC(C)=CCC/C(C)=C/CC/C(C)=C/CC[C@]1(C)CCc2c3c(cc(C)c2O1)OCN(CCCCO)C3 test_value=16400
record_smiles=CC(C)=CCC/C(C)=C/CC/C(C)=C/CC[C@]1(C)CCc2c3c(c(C)c(C)c2O1)OCN(CCCCCCCCO)C3 test_value=3030
record_smiles=CC(C)=CCC/C(C)=C/CC/C(C)=C/CC[C@]1(C)CCc2c3c(c(C)c(C)c2O1)OCN(CCCCCCO)C3 test_value=2840
record_smiles=COc1ccc(CCN2COc3cc(C)c4c(c3C2)CC[C@@](C)(CC/C=C(\C)CC/C=C(\C)CCC=C(C)C)O4)cc1OC test_value=1940

Now for another entry.
Task item: Need GI50, item `CC(C)=CCC/C(C)=C/CC/C(C)=C/CC[C@]1(C)CCc2c3c(cc(C)c2O1)OCN(CCc1ccc(O)cc1)C3`
Reply: 6060

----------
Recorded measurements of GI50, one per entry
- System: HOP-62
- protocol-details: Growth inhibition of human HOP62 cells after 48 hrs by sulforhodamine B assay
- Assay type: functional
- condition-label: HOP-62, 48 h
State just the number; it will be interpreted in µM.

For orientation, consider the following solved cases.
record_smiles=CC(C)=CCC/C(C)=C/CC/C(C)=C/CC[C@]1(C)CCc2c3c(cc(C)c2O1)OCN(CCCCCO)C3 test_value=5.9
record_smiles=CC(C)=CCC/C(C)=C/CC/C(C)=C/CC[C@]1(C)CCc2c3c(c(C)c(C)c2O1)OCN(CCCCCO)C3 test_value=5.9

Now for a further compound.
Task item: May I ask what GI50 has been recorded for `CC(C)=CCC/C(C)=C/CC/C(C)=C/CC[C@]1(C)CCc2c3c(c(C)c(C)c2O1)OCN(CCCCO)C3` ?
Reply: 5.95

----------
- Test system: CAKI-1
- protocol-details: Growth inhibition of human CAKI-1 cells assessed as cell growth at 10 uM after 48 hrs by sulforhodamine B assay
- Assay type: functional
- condition-label: CAKI-1, 48 h, read-out: Activity
Please mark condition met if the recorded growth at 10 µM is equal to or greater than 70%, and condition not met if it falls below.

For orientation, consider the following solved cases.
record_smiles=CC(C)=CCC/C(C)=C/CC/C(C)=C/CC[C@]1(C)CCc2c3c(cc(C)c2O1)OCN(CCCCCO)C3 assigned_label="condition met"
record_smiles=CC(C)=CCC/C(C)=C/CC/C(C)=C/CC[C@]1(C)CCc2c3c(cc(C)c2O1)OCN(CCCCCCCCCCO)C3 assigned_label="condition met"
record_smiles=CC(C)=CCC/C(C)=C/CC/C(C)=C/CC[C@]1(C)CCc2c3c(c(C)c(C)c2O1)OCN(CCCCCCCCCCO)C3 assigned_label="condition met"
record_smiles=COc1ccc(CCNCc2c(O)c(C)c(C)c3c2CC[C@@](C)(CC/C=C(\C)CC/C=C(\C)CCC=C(C)C)O3)cc1OC assigned_label="condition met"
record_smiles=COc1ccc(CCN2COc3cc(C)c4c(c3C2)CC[C@@](C)(CC/C=C(\C)CC/C=C(\C)CCC=C(C)C)O4)cc1OC assigned_label="condition met"

Task item: Please tell me: is the compound `CC(C)=CCC/C(C)=C/CC/C(C)=C/CC[C@]1(C)CCc2c3c(cc(C)c2O1)OCN(CCCO)C3` at or over 70% in terms of growth at 10 µM?
Reply: condition not met

Task item: Would you kindly repeat that for `CC(C)=CCC/C(C)=C/CC/C(C)=C/CC[C@]1(C)CCc2c3c(c(C)c(C)c2O1)OCN(CCCCCCO)C3` ?
Reply: condition not met

Task item: Also check `CC(C)=CCC/C(C)=C/CC/C(C)=C/CC[C@]1(C)CCc2c3c(cc(C)c2O1)OCN(CCCCO)C3`
Reply: condition not met

Task item: Please do the same for `CC(C)=CCC/C(C)=C/CC/C(C)=C/CC[C@]1(C)CCc2c3c(c(C)c(C)c2O1)OCN(CCc1ccc(O)cc1)C3` as well.
Reply: condition met

Task item: Now consider `CC(C)=CCC/C(C)=C/CC/C(C)=C/CC[C@]1(C)CCc2cc(O)c(C)c(C)c2O1` and answer again.
Reply: condition met

----------
- protocol-details: Antiproliferative activity against mouse +SA cells by MTT assay
- Format: functional, cell-based
- condition-label: +SA cell
value-type: IC50 (µM)
The answer is to be given in µM; state only the numeric part.

record_smiles=CCOC(CCN1COc2c(C)c(C)c3c(c2C1)CC[C@@](C)(CC/C=C(\C)CC/C=C(\C)CCC=C(C)C)O3)OCC test_value=9.3
record_smiles=CC(C)=CCC/C(C)=C/CC/C(C)=C/CC[C@]1(C)CCc2c3c(c(C)c(C)c2O1)OCN(CCCCCCCCCCO)C3 test_value=4.4
record_smiles=CC(C)=CCC/C(C)=C/CC/C(C)=C/CC[C@]1(C)CCc2c3c(c(C)c(C)c2O1)OCN(CCO)C3 test_value=1.7
record_smiles=COc1ccc(CCNCc2c(O)c(C)c(C)c3c2CC[C@@](C)(CC/C=C(\C)CC/C=C(\C)CCC=C(C)C)O3)cc1OC test_value=1.7

Task item: I have this compound here, `CC(C)=CCC/C(C)=C/CC/C(C)=C/CC[C@]1(C)CCc2c3c(cc(C)c2O1)OCN(CCO)C3` , and I need its recorded IC50.
Reply: 4.2

Task item: Also check `CC(C)=CCC/C(C)=C/CC/C(C)=C/CC[C@]1(C)CCc2c3c(c(C)c(C)c2O1)OCN(CCCCCO)C3`
Reply: 1.7

Task item: Again, but for `CC(C)=CCC/C(C)=C/CC/C(C)=C/CC[C@]1(C)CCc2c3c(c(C)c(C)c2O1)OCN(CCCCO)C3`
Reply: 2.2
